# assay-method-text: inhibitors of Chlamydomonas gravitaxis, primary screen, whole organism, Chlamydomonas reinhardtii, WT vs cilia-less mutant, absorbance, 96-well (AID 463189);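 further: 0% = wild type cc124 cells in DMSO and 100% = ciliumless bld1 mutant cells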
# recorded-conditions: OD600 absorbance, 2 days, at 10 µM, hits give high values
Catalogue of inhibition values
Just the number please, in %, no unit attached.

compound | inhibition (%)
CC1(C)Cc2c(c(-c3ccccc3Cl)[nH]c(=O)c2C#N)CO1 | 20.5
CC(NC(=O)Nc1cccnc1)(C(F)(F)F)C(F)(F)F | 0.542
Cc1ccc(OCC(=O)N(C)CCc2ccccn2)cc1 | 7.87
CC1(C)Cc2nc3sc4c(N(CCO)CCO)ncnc4c3cc2CO1 | 36.1
Cc1cccc(-n2ncc3c(NCc4ccco4)ncnc32)c1 | 2.88
CCSc1nnc(NC(NC(=O)c2ccco2)(C(F)(F)F)C(F)(F)F)s1 | -9.53
CC(=O)Nc1ccc(NCC(O)COc2ccccc2)cc1 (stereo not drawn) | 22.2
CCC(NC(=O)Nn1cnnc1)(C(F)(F)F)C(F)(F)F | 19.5

Assign inhibition to the following record: "CCOC(=O)c1c(NC(=O)CN2CCOCC2)sc2c1CC(C)(C)OC2"
-12.3

Assign inhibition to the following record: O=C(O)C(O)c1ccco1 (stereo not drawn)
-5.52

Assign inhibition to the following record: "CCCCCOc1ccccc1C(=O)NCCCC(=O)O"
32.4

Assign inhibition to the following record: "Cc1nn(CCO)c2c1C(=O)CCC2"
-6.32

Assign inhibition to the following record: "Cn1c(=O)c2c(nc(NCc3ccco3)n2CCc2ccccc2)n(C)c1=O"
33.1

Assign inhibition to the following record: "COc1ccc2[nH]cc(C(=O)CN(C)CCc3ccc(OC)c(OC)c3)c2c1"
-1.18

Assign inhibition to the following record: "N#Cc1nc(COc2ccccc2)oc1N1CCCC1"
-0.28

Assign inhibition to the following record: "CC1(C)Cc2c(sc3ncn4nc(-c5ccco5)nc4c23)CO1"
16.9

Assign inhibition to the following record: "CC1(C)Cc2c(C#N)c(OCC(=O)c3ccccc3)nc(-c3ccoc3)c2CO1"
56.8

Assign inhibition to the following record: CCCC1CC(=O)OC1(C)C(=O)CSc1n[nH]c(-c2ccccc2)n1 (stereo not drawn)
-3.69

Assign inhibition to the following record: "COc1cc(Cn2ccnc2)c(OC)cc1Cn1ccnc1"
10.7

Assign inhibition to the following record: "Cc1ccc(CNC(=O)c2cc3c(=O)n4ccccc4nc3n(Cc3ccco3)c2=N)cc1"
32.6

Assign inhibition to the following record: "NC(=O)CSc1nnc2n(-c3ccccc3)c(=O)c3c4c(sc3n12)CCCCC4"
7.56

Recorded values, source PubChem BioAssay.
